experiment: Bioavailability in ip dosed mouse; type: ADME, organism-based; conditions: in vivo
PARAMETER: bioavailability (%)
Unit % implied. Number only.

Item under review: `O=C(c1cc(C(F)(F)F)cc(C(F)(F)F)c1)c1cn(-c2cc(Cl)ccc2O)nn1` . Reported bioavailability?
85.1

###

assay: Half life in mouse at 1 mg/kg, iv; format: ADME, organism-based; settings: in vivo
PARAMETER: half-life (h)
Unit h implied. Number only.

Item under review: `O=C(c1cc(C(F)(F)F)cc(C(F)(F)F)c1)c1cn(-c2cc(Cl)ccc2O)nn1` . Reported half-life?
3.22

###

assay: Clearance in mouse liver microsomes; type: ADME; conditions: read-out: CLH
PARAMETER: microsomal CLint (µL/min/mg)
Unit µL/min/mg implied. Number only.

- SMILES_INPUT: "O=C(c1cc(C(F)(F)F)cc(C(F)(F)F)c1)c1cn(-c2cc(Cl)ccc2O)nn1"
  microsomal CLint [µL/min/mg]: 19.4

Next up:
Item under review: `Cc1cc(C)cc(C(=O)NC(=S)Nc2cc([N+](=O)[O-])ccc2O)c1` . Reported microsomal CLint?
1260
